Experimental System: SCRIB_1, Q14160
Sequence (Q14160 718-814): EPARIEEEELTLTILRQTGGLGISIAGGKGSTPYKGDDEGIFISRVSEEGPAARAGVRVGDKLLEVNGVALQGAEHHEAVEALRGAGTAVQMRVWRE
Measurement Description: holdup assay
Design: key: below the threshold = too weak to quantify, mostly under pKd 3.1 to 4
Condition Notes: plain residues with an end cap or a label only (N-terminal biotin on a linker: ado-ado)
Readout Name: pKd

Some binders with recorded pKd:
Binder	pKd
GNSVLKSTQF [SLC22A12, Q96S37]	below the threshold
DDEDRLVIEI [ZNF831, Q5JPB2]	below the threshold
PEYLGLDVPV [ERBB2, P04626]	below the threshold
YRLAQESGLV [ABCC6, O95255]	below the threshold
RRLPGKETMA [GRIK2, Q13002]	below the threshold

Ask: Determine from records and report pKd for VYPNAKVELV [PDLIM4_iso2, P50479;P50479-1]
Reply: below the threshold

Ask: Determine from records and report pKd for TPPAAKKSRI [BAZ1A, Q9NRL2]
Reply: below the threshold

Ask: Determine from records and report pKd for DTTVPESEDL [MYOZ2, Q9NPC6]
Reply: below the threshold

Ask: Determine from records and report pKd for VNKSKLLTDV [KCNA1, Q09470]
Reply: 3.87

Ask: Determine from records and report pKd for LPHPHSTTRV [NLGN2, Q8NFZ4]
Reply: below the threshold

Ask: Determine from records and report pKd for EKKTLIGIKL [GOT1L1, Q8NHS2]
Reply: below the threshold

Ask: Determine from records and report pKd for RHGSCVETSL [TMEM151B, Q8IW70]
Reply: 5.5

Ask: Determine from records and report pKd for QSARLWETSI [ADAM22, Q9P0K1]
Reply: 5.23
